Consider the following compounds; for each one, report its GI50.
tested on: CAKI-1 renal; assay: NCI tumour cell line growth inhibition, 48 h

Incoming: Entry under review: CCOC(=O)N1CCN(C(=O)c2ccc(C(F)(F)F)nc2Nc2cc(Cl)ccc2C)CC1 . Reported GI50?
Outgoing: 21.1 µM

Incoming: # query: GI50 of entry C#C[C@]1(O)CC[C@H]2[C@@H]3CC=C4c5sc(Nc6ccccc6)nc5CC[C@]4(C)[C@H]3CC[C@@]21C
Outgoing: 1.64 µM

Incoming: Can you share its GI50? I mean this compound: O=C(O)c1cc(O)c2c(c1)C(C1c3cc(C(=O)O)cc(O)c3C(=O)c3c(OC4OC(CO)C(O)C(O)C4O)cccc31)c1cccc(OC3OC(CO)C(O)C(O)C3O)c1C2=O (stereo not drawn)
Outgoing: > 100 µM

* * *

tested on: SK-MEL-2 melanoma; test: NCI tumour cell line growth inhibition, 48 h; in the data active means GI50 below about 0.43 µM; inactive means the rest
Assign a class; possible classes are active, inactive

Incoming: What did this assay record as the result for COc1cc(/C=C2\C(=O)Nc3ccc(F)cc32)cc(OC)c1OC ?
Outgoing: inactive

Incoming: Recorded call for CC(=O)c1c(CBr)n([O-])c2ccccc2[n+]1=O ?
Outgoing: inactive

Incoming: How did this test come out for CC(=O)O[C@@H]1C[C@]2(C(C)C)O[C@@]1(C)[C@@H]1CCC(C)=C1[C@@H]2OC(=O)/C=C/c1ccccc1 ?
Outgoing: inactive

Incoming: Check the results log: what was the call for Cc1ccc(N(CSc2ccc(Cl)cc2)CSc2ccc(Cl)cc2)cc1 ?
Outgoing: inactive

Incoming: GET /call?item= CCCCCc1c(C)[nH]c(/C=C2\N=C(c3ccc[nH]3)C=C2CC)c1C returns the recorded outcome of this test.
Outgoing: active

Incoming: I'd appreciate the recorded outcome for CN(C)c1ccc2nc3ccc(=O)cc-3sc2c1 from this test.
Outgoing: inactive

Incoming: What classification did NS(=O)(=O)c1ccc(-n2c(-c3cccs3)nc3ccc(I)cc3c2=O)cc1 end up with in this test?
Outgoing: inactive

Incoming: Can you look up the reported call for Cc1[nH][nH]c(=O)c1C=Nc1ccc(-c2nc3ccccc3[nH]2)cc1 for me?
Outgoing: inactive

Incoming: Name the outcome recorded for CC(=O)Oc1ccccc1C(=O)N=C1[Se]CCCN1C(=O)c1ccccc1OC(C)=O in the assay.
Outgoing: inactive

Incoming: Name the outcome recorded for CN1CCc2c(Sc3ccc(C(=O)NO)cc3)c3ccccc3n2C1 in the assay.
Outgoing: inactive

* * *

tested on: HOP-62 NSCLC; test: NCI tumour cell line growth inhibition, 48 h
reportedMetric: TGI (µM)
Numeric only. Scale: µM

Incoming: Requested field: TGI. Item: Cc1c[n+](Cc2ccc3ccccc3c2)cn1Cc1ccc2ccccc2c1
Outgoing: 3.8

Incoming: Would you kindly share the measured TGI for CCN1CCN(c2ccc(Nc3ccnc4ccc5nn(C)nc5c34)cc2)CC1 ?
Outgoing: 26.4

* * *

test system: SNB-19 CNS; test: NCI tumour cell line growth inhibition, 48 h; in the data active means GI50 below about 0.43 µM; inactive means the rest
Write down the outcome that applies. Available outcomes: active, inactive

Incoming: Dear all, I need the recorded test outcome for O=C1c2ccn(CCCCNC(CO)(CO)CO)c2C(=O)c2c1c(O)c1ccccc1c2O , thank you.
Outgoing: inactive

Incoming: Status in this test for Nc1nc(Nc2ccccc2)c2ncn(Cc3cc4c(cc3Br)OCO4)c2n1 ?
Outgoing: active

Incoming: Tell me the assay call for Cc1[nH][nH]c(=O)c1C=Nc1ccc(-c2nc3ccccc3[nH]2)cc1 please.
Outgoing: inactive

Incoming: Tell me the recorded outcome of this test for CC(=O)O[C@@H]1C[C@]2(C(C)C)O[C@@]1(C)[C@@H]1CCC(C)=C1[C@@H]2OC(=O)/C=C/c1ccccc1 .
Outgoing: inactive

Incoming: Which outcome was entered for the compound CCN(CC)CCOc1ccc(/C(=C(\C)c2ccc(F)c(OC)c2)c2ccc(Cl)cc2)cc1 in this test?
Outgoing: inactive

Incoming: Record lookup: outcome of this test for O=C(N/N=C\c1cc(Br)ccc1O)c1ccncc1 ?
Outgoing: inactive

Incoming: Identify the outcome logged in this assay for the compound shown: CCN(CC)CC(C)(C)C(=O)/C=C/c1ccc(Cl)c(Cl)c1
Outgoing: inactive

Incoming: Assay outcome for OCCCCC#Cc1ccccc1C#Cc1cccc(O)c1 : what was it?
Outgoing: inactive

Incoming: So what was the verdict on COc1ccc(-c2cc(-c3cccn3C)c(C#N)c(N)n2)cc1OC in this test?
Outgoing: inactive

Incoming: Hi team, can someone confirm the assay call for O=C(O)c1cc(O)c2c(c1)C(C1c3cc(C(=O)O)cc(O)c3C(=O)c3c(OC4OC(CO)C(O)C(O)C4O)cccc31)c1cccc(OC3OC(CO)C(O)C(O)C3O)c1C2=O (stereo unspecified) ?
Outgoing: inactive

Incoming: Fill in: this test's call for O=C1/C(=C\c2cccn2Cc2ccccc2)c2ccccc2N1c1c(Cl)cccc1Cl is ___
Outgoing: inactive

Incoming: Dear all, I need the recorded test outcome for CCOC(=O)N1CCN(C(=O)c2ccc(C(F)(F)F)nc2Nc2cc(Cl)ccc2C)CC1 , thank you.
Outgoing: inactive

Incoming: Name the outcome recorded for CN(C)c1ccc2nc3ccc(=O)cc-3sc2c1 in the assay.
Outgoing: inactive

Incoming: Entry CC(=O)Oc1ccccc1C(=O)N=C1[Se]CCN1C(=O)c1ccccc1OC(C)=O : call = ?
Outgoing: inactive

Incoming: What call does the record list for Cc1c[n+](Cc2ccc3ccccc3c2)cn1Cc1ccc2ccccc2c1 ?
Outgoing: inactive

Incoming: Identify the outcome logged in this assay for the compound shown: Nc1c(C(=O)N/N=C/c2ccc(-c3ccc(Cl)cc3)o2)cnn1-c1ccnc2c(C(F)(F)F)cccc12
Outgoing: inactive

* * *

Would you kindly list TGI for each of these compounds?
system: SK-MEL-5 melanoma; test: NCI tumour cell line growth inhibition, 48 h
Give the value in µM but do not write µM after it.

Incoming: Which measured TGI value corresponds to O=C1/C(=C\c2ccc([N+](=O)[O-])o2)SC2N=C(COc3ccc(Cl)cc3)NN12 (stereo not drawn) ?
Outgoing: 27.1

Incoming: What does the record list as TGI for CC(=O)OC1CC2c3cccc4c3C(CC2N(C)C1=O)CN4C(=O)c1ccccc1 (stereo not drawn) ?
Outgoing: 29.1

Incoming: Given the compound CC(=O)c1sc2c(c1OC(=O)c1cccs1)c(=O)n(-c1ccccc1)c(=S)n2-c1ccccc1 , what is its reported TGI?
Outgoing: 25.8

Incoming: For COc1cccc(CCn2c(N)c(-c3ccccc3)c3ccc([N+](=O)[O-])cc3c2=O)c1 , what is its reported TGI?
Outgoing: 19.3

Incoming: Fill blank: measured TGI of the compound N#CC1(C2SCCS2=O)C2=C(C(=O)c3ccccc3C2=O)N2CCCC21 (stereo not drawn) is ____.
Outgoing: 1.1

Incoming: Could you share which TGI value was measured for Nc1ccc(C(=O)NN2C(=O)C(Cl)C2c2ccccc2Cl)cc1 (stereo not drawn) ?
Outgoing: 29.5

Incoming: Give the measured TGI of OCCCCC#Cc1ccccc1C#Cc1cccc(O)c1 .
Outgoing: 32.7

Incoming: Recorded TGI of O=C1CSC(Cc2nc3ccccc3[nH]2)=N1 , please.
Outgoing: 26.6

Incoming: Any idea what TGI was measured for Clc1ccc(-c2c(C3=NCCN3)nnn2-c2ccc(Cl)cc2)cc1 ?
Outgoing: 30.5

* * *

system: MCF7 breast; assay: NCI tumour cell line growth inhibition, 48 h
reportedMetric: TGI (µM)
// units = µM; emit number, no label

Incoming: Value lookup for TGI; key = Cc1cc(NC(=O)c2ccc(C)c(Nc3nccc(-c4cccnc4)n3)c2)cc(-n2cnc(C)c2)c1
Outgoing: 9.19

Incoming: Could you share which TGI value was measured for Cc1cc(C)cc(C(=N)c2ccccc2Cc2cccc3ccccc23)c1 ?
Outgoing: 32.2

Incoming: What measured TGI goes with O=C1/C(=C\c2ccc([N+](=O)[O-])o2)SC2N=C(COc3ccc(Cl)cc3)NN12 (centres undefined) ?
Outgoing: 4.8

Incoming: // returns reported TGI for input O=C(N/N=C\c1cc(Br)ccc1O)c1ccncc1
Outgoing: 7.25

* * *

test system: OVCAR-4 ovarian; assay: NCI tumour cell line growth inhibition, 48 h
reportedMetric: TGI (µM)
Please give a number only; it is taken to be in µM.

Incoming: What does the record list as TGI for O=c1[nH]c2cc(Cl)ccc2n1C1CCN(CCCC(c2ccc(F)cc2)c2ccc(F)cc2)CC1 ?
Outgoing: 2.9

Incoming: // TGI lookup, key: COc1ccc(CNc2c3ccccc3nc3ccccc23)cc1OC
Outgoing: 7.99

Incoming: Value lookup for TGI; key = Cc1[nH]n(-c2cccc(Cl)c2)c(=O)c1/C=C1\C=Nc2ccc(Br)cc21
Outgoing: 2.95

Incoming: Which TGI value belongs to CCCCCc1c(C)[nH]c(/C=C2\N=C(c3ccc[nH]3)C=C2CC)c1C ?
Outgoing: 0.727

* * *

test system: HOP-18 NSCLC; test: NCI tumour cell line growth inhibition, 48 h
reportedMetric: TGI (µM)
Please reply with the bare figure in µM and do not write the unit itself.

Incoming: Which TGI is reported for this molecule? Nc1ccc(C(=O)NN2C(=O)C(Cl)C2c2ccccc2Cl)cc1 (configuration not stated)
Outgoing: 8.87

Incoming: Consider the molecule shown here: CCOC(=O)C(N)CSC(=O)NC (configuration not stated) What is its recorded TGI?
Outgoing: 686

Incoming: Find the recorded TGI belonging to CCCCCC(C[N+]1(C)CCOCC1)C(=O)/C=C/c1ccccc1 (configuration not stated) and report it.
Outgoing: 32.1
